Data credit: patent US12503438B2

Molecular target: AXL (Homo sapiens, UniProt P30530)
Construct: endogenous in cells
Sequence (P30530 26-894): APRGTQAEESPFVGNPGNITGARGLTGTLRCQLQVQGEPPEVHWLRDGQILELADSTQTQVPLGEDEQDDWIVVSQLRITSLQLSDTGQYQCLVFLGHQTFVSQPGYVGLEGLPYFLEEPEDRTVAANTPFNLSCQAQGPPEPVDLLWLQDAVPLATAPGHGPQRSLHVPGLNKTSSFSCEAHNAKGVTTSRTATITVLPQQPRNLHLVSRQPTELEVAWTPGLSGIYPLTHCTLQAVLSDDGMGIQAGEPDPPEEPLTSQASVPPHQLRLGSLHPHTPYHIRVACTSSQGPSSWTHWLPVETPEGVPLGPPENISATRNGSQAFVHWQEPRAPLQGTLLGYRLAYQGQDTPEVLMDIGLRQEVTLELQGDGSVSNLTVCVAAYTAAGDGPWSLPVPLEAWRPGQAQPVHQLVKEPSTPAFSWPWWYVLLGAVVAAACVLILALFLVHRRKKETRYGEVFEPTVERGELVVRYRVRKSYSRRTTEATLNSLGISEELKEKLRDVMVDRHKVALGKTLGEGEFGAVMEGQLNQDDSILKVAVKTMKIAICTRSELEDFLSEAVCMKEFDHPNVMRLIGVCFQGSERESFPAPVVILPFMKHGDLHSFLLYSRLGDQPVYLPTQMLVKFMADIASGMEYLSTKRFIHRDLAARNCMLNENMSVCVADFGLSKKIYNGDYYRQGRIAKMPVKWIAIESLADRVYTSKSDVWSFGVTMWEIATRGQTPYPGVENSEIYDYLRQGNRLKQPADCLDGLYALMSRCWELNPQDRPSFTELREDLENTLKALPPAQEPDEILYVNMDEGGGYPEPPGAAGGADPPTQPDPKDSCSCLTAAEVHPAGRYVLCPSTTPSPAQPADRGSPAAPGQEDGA
Assay: AXL autophosphorylation ELISA in A-172 cells
Details: cellular activity, Gas6-stimulated, phospho-AXL ELISA
pIC50: −log10 of the molar value.
Reported metric: pIC50

>>> value("O=C(Nc1ccc(F)cc1)C1(C(=O)Nc2ccc(Oc3ccnc4cc(-c5ccn(C6CC6)n5)ccc34)cc2)CC1")
"7.00 to 8.00"
>>> value("O=C(Nc1ccc(F)cc1)C1(C(=O)Nc2ccc(Oc3ccnc4cc(-c5ccn[nH]5)ccc34)cc2)CC1")
"≥ 8.00"
>>> value("O=C(Nc1ccc(F)cc1)C1(C(=O)Nc2ccc(Oc3ccnc4cc(C5CCOC5)ccc34)cc2)CC1 (single isomer, unassigned) [Compound 89]")
"< 6.52"
>>> value("O=C(Nc1ccc(F)cc1)C1(C(=O)Nc2ccc(Oc3ccnc4cc(-c5ccc(F)nc5)ccc34)cc2)CC1")
"7.00 to 8.00"
>>> value("O=C(Nc1ccc(F)cc1)C1(C(=O)Nc2ccc(Oc3ccnc4cc(C5=CCOC5)ccc34)cc2)CC1")
"7.00 to 8.00"
>>> value("O=C(Nc1ccc(F)cc1)C1(C(=O)Nc2ccc(Oc3ccnc4cc(-c5ccnnc5)ccc34)cc2)CC1")
"≥ 8.00"
>>> value("Cn1ccc(-c2ccc3c(Oc4ccc(NC(=O)C5(C(=O)Nc6ccc(F)cc6)CC5)cc4)ccnc3c2)cc1=O")
"≥ 8.00"
>>> value("Cn1nccc1-c1ccc2c(Oc3ccc(NC(=O)C4(C(=O)Nc5ccc(F)cc5)CC4)cc3)ccnc2c1")
"7.00 to 8.00"
>>> value("Cc1cc(-c2ccc3c(Oc4ccc(NC(=O)C5(C(=O)Nc6ccc(F)cc6)CC5)cc4)ccnc3c2)ccn1")
"7.00 to 8.00"
>>> value("O=C(Nc1ccc(F)cc1)C1(C(=O)Nc2ccc(Oc3ccnc4cc(-c5ccccc5)ccc34)cc2)CC1")
"6.52 to 7.00"
>>> value("Cc1cc2c(Oc3ccc(NC(=O)C4(C(=O)Nc5ccc(F)cc5)CC4)cc3F)ccnc2cc1-c1ncc[nH]1")
"7.00 to 8.00"
>>> value("O=C(Nc1ccc(F)cc1)C1(C(=O)Nc2ccc(Oc3ccnc4cc(-c5ccn(C(F)F)n5)ccc34)cc2)CC1")
"7.00 to 8.00"
>>> value("N#Cc1cc(-c2ccc3c(Oc4ccc(NC(=O)C5(C(=O)Nc6ccc(F)cc6)CC5)cc4)ccnc3c2)ccn1")
"7.00 to 8.00"
>>> value("CS(=O)(=O)N1CCC(c2ccc3c(Oc4ccc(NC(=O)C5(C(=O)Nc6ccc(F)cc6)CC5)cc4)ccnc3c2)C1 (centres unmarked)")
"6.52 to 7.00"
